- Tested on: M14 melanoma
- ASSAY_EXPLANATION: NCI-60 one-dose screen, 48 h (100 = growth as untreated, 0 = no growth, -100 = all killed)
- TEST_CONTEXT: 10 µM
This is part of a sample that, as a whole, favours compounds with a hit. Of some 83,000 tested, about 20% had one in any assay.
MEASURED_QUANTITY: growth (%)
Give bare numbers, in %.

Solved cases below.
COc1ccc2[nH]c(O)c(N=NC(=O)c3cc(-c4ccc(C)cc4)nc4ccccc34)c2c1 ... 99.1
C=C(C)[C@@H]1CC[C@]2(COP(=O)(OCC)OCC)CC[C@]3(C)[C@H](CC[C@@H]4[C@@](C)(CCCN)[C@H](C(=C)C)CC[C@]43C)[C@@H]12 ... 18.2
O=C(CN1CCN(c2ncnc3c2cnn3-c2ccccc2)CC1)Nc1nncs1 ... 4.82

Turning to the following compound.
QUERY: Query: growth; subject: `O=c1oc2ccc(-c3ccc(F)cc3F)cc2c(=O)n1-c1ccc(F)cc1`
RESULT: 18.3

---

- Tested on: NCI-H322M lung
- ASSAY_EXPLANATION: NCI-60 one-dose screen, 48 h (100 = growth as untreated, 0 = no growth, -100 = all killed)
- TEST_CONTEXT: 10 µM
The panel holds about 83,000 compounds, 20% with a hit somewhere; the sample as a whole holds those more often. Calls of active or inactive are those of the source. The calls were made as follows: active = growth percent below 10; inactive = the rest.
MEASURED_QUANTITY: growth

COc1ccc(-c2cc(C(=O)N=Nc3c(O)[nH]c4ccc(F)cc34)c3ccccc3n2)cc1 ... 76.4% (inactive)

Each of the following entries comes with a recorded value; kindly state growth for each.
1. COc1ccc(N2N=C(c3ccc4c(c3)OCCO4)CC2c2cccc(NC(=O)CCCNS(=O)(=O)c3ccc(F)cc3)c2)cc1 (stereo not given)
2. CC(=O)Nc1nc(-c2ccc(N3CCN(C)CC3)c(NS(=O)(=O)c3ccc(C(F)(F)F)cc3)c2)cs1
3. N#Cc1c(NC(=O)c2cccc(C(F)(F)F)c2)sc2c1CCC(O)=C2
4. Cc1ccc(/C(N)=N/c2sc(-c3ccccc3)nc2-c2ccccc2)cc1

RESULT:
1. 75% (inactive)
2. 88.2% (inactive)
3. 49.2% (inactive)
4. 90.2% (inactive)

---

- System: OVCAR-8 ovarian
- ASSAY_EXPLANATION: NCI-60 one-dose screen, 48 h
- TEST_CONTEXT: 10 µM
The panel holds about 83,000 compounds, 20% with a hit somewhere; the sample as a whole holds those more often. Calls of active or inactive are those of the source. How the source made its calls: active means growth percent below 10; inactive means the rest.
# output must be one of active, inactive

Completed entries (count: 4):
Cc1ccc(C(C)C)cc1NC(=O)c1ccccc1O ... inactive
c1ccc(C(=C(c2ccc(OCCN3CCCCC3)cc2)c2ccc(OCCN3CCCCC3)cc2)C2CCCC2)cc1 ... active
CCOc1ccc(/C=N/NC(=O)Cn2nc(Cc3ccc([N+](=O)[O-])cc3)c3onc(C)c3c2=O)cc1 ... active
O=C(CSc1nnc(-c2c[nH]c3ccccc23)n1-c1ccccc1)Nc1ccc(C(=O)/C=C/c2ccccc2Cl)cc1 ... inactive

QUERY: Field: outcome | Entry: `O=C1Nc2ccc(Cl)cc2/C1=C/c1ccc(OCc2ccccn2)cc1`
RESULT: inactive

QUERY: Field: outcome | Entry: `COc1cc(/C=C/C(=O)c2ccc(S(=O)(=O)NCCNc3nc(Nc4ccc(F)cc4)nc(N(C)C)n3)cc2)cc(OC)c1OC`
RESULT: active

QUERY: Field: outcome | Entry: `CC(=O)c1ccc(NC(=O)NCn2c(=O)[nH]c3ccccc3c2=O)cc1`
RESULT: inactive

QUERY: Field: outcome | Entry: `O=C(c1ccc(-n2c(=O)[nH]c3ccccc3c2=O)cc1)N1CCOCC1`
RESULT: inactive

QUERY: Field: outcome | Entry: `O=C(Nc1ccc(OCC(=O)c2ccccc2)cc1)Nc1ccc(Cl)c(C(F)(F)F)c1`
RESULT: inactive

Hello, the source for this data is PubChem BioAssay (NCI), in case you need it.
